Experimental Target: 6xHis‐tagged LC3B (human, UniProt Q9GZQ8 1-120)
Measurement Description: ELISA; called peptide array: biotinylated peptides immobilised on streptavidin-coated 96-well plates; 1 μM His6-mATG8 in PBS, 0.1% Tween-20, 1% BSA, 1 h, 8°C; anti-His-HRP, TMB, absorbance at 450 nm
Cond: both partners purified
Ends that are not written are not given here.
Readout Name: binding result

INSERT INTO results (binder, readout_name, measured_result) VALUES
  ('EEDILVVTT (also: biotinylated, NDP52 LIR; source: bought: JPT (biotinylated peptide)) [NDP52 LIR peptide (130–138), biotinylated]', 'binding result', 'binds'),
  ('EDEWVIVQY (peptide, UniProt Q9Y4G2 632-640, looked up, also: biotinylated, PLEKHM1 LIR; source: bought: JPT (biotinylated peptide)) [PLEKHM1‐LIR N637I peptide (biotinylated 9-mer)]', 'binding result', 'binds'),
  ('DAVFDIITD (also: biotinylated, FYCO1 LIR; source: bought: JPT (biotinylated peptide)) [FYCO1 LIR peptide (1277–1285), biotinylated]', 'binding result', 'binds'),
  ('TFDFETIPH (also: biotinylated, FIP200 LIR; source: bought: JPT (biotinylated peptide)) [FIP200 LIR peptide (699–707), biotinylated]', 'binding result', 'binds');
